Field: IC50. Provide a value for each of the compounds that follow.
target: recombinant human MMP-13 (Homo sapiens); assay: biochemical; settings: Inhibition Table B; read-out: MMP-13 IC50
Counter-ions that a name gives are not always drawn.
Express it in pM; write the number only.

Challenge: Looking for the measured IC50 of C#CCN1CCC(Oc2ccc(S(=O)(=O)C3(C(=O)NO)CCOCC3)cc2)CC1 [Example 106, Monohydrochloride] , can you help?
Response given: 12100

Challenge: Looking for the measured IC50 of CC(C)N1CCC(C(=O)NO)(S(=O)(=O)c2ccc(Sc3ccccc3)cc2)CC1 [Example 34, Monohydrochloride] , can you help?
Response given: 1200

Challenge: Looking for the measured IC50 of CC1(C)OCC(C(=O)NO)(S(=O)(=O)c2ccc(Oc3ccccc3)cc2)CO1 [Example 48] , can you help?
Response given: 250

Challenge: Looking for the measured IC50 of O=C(O)CN1CCC(C(=O)NO)(S(=O)(=O)c2ccc(Oc3ccc(Cl)cc3)cc2)CC1 [Example 88, Monohydrochloride] , can you help?
Response given: 200

Challenge: Looking for the measured IC50 of CC(C)NC(=O)N1CCC(C(=O)NO)(S(=O)(=O)c2ccc(Oc3ccc(Cl)cc3)cc2)CC1 [Example 90] , can you help?
Response given: 100

Challenge: Looking for the measured IC50 of O=C(NO)C1(S(=O)(=O)c2ccc(Oc3ccc(OCc4ccccc4)cc3)cc2)CCOCC1 [Example 72] , can you help?
Response given: 300

* * *

conditions: Rat Intravenous 20 mpk
Measurement Label: t½ Hour (h)
Express it in h; write the number only.

Challenge: Looking for the measured t½ Hour of Cl.O=C(NO)C1(S(=O)(=O)c2ccc(Oc3ccc(OC(F)(F)F)cc3)cc2)CCNCC1 , can you help?
Response given: 1.78

Challenge: Looking for the measured t½ Hour of CC(=O)N1CCC(C(=O)NO)(S(=O)(=O)c2ccc(Sc3ccccc3)cc2)CC1.Cl , can you help?
Response given: 0.65

Challenge: Looking for the measured t½ Hour of Cl.O=C(NO)C1(S(=O)(=O)c2ccc(Oc3ccc(Cl)cc3)cc2)CCNCC1 , can you help?
Response given: 1.81

Challenge: Looking for the measured t½ Hour of O=C(NO)C1(S(=O)(=O)c2ccc(Oc3ccc(Cl)cc3)cc2)CCOCC1 , can you help?
Response given: 1.50

* * *

Field: IC50. Provide a value for each of the compounds that follow.
target: recombinant human MMP-13 (Homo sapiens); experiment: biochemical; settings: Inhibition Table B; read-out: MMP-13 IC50
Counter-ions that a name gives are not always drawn.

Challenge: Under recombinant human MMP-13 (Homo sapiens): IC50 value of O=C(N1CCCCC1)N1CCN(c2ccc(S(=O)(=O)C3(C(=O)NO)CCOCC3)cc2)CC1 ?
Response given: 20 nM

Challenge: Under recombinant human MMP-13 (Homo sapiens): IC50 value of O=C(NO)C1(S(=O)(=O)c2ccc(Oc3ccccc3)cc2)CCS(=O)(=O)CC1 ?
Response given: 0.5 nM

Challenge: Under recombinant human MMP-13 (Homo sapiens): IC50 value of O=Cc1cccc(-c2ccc(S(=O)(=O)C3(C(=O)NO)CCOCC3)cc2)c1 ?
Response given: < 1 nM

Challenge: Under recombinant human MMP-13 (Homo sapiens): IC50 value of CS(=O)(=O)N1CCC(C(=O)NO)(S(=O)(=O)c2ccc(Oc3ccc4c(c3)OCO4)cc2)CC1 ?
Response given: 0.4 nM

Challenge: Under recombinant human MMP-13 (Homo sapiens): IC50 value of COCCN1CCC(C(=O)NO)(S(=O)(=O)c2ccc(Sc3ccccc3)cc2)CC1 [Example 35, Monohydrochloride] ?
Response given: 0.5 nM

Challenge: Under recombinant human MMP-13 (Homo sapiens): IC50 value of O=C(NO)C1(S(=O)(=O)c2ccc(Oc3ccc(F)c(F)c3)cc2)CCOCC1 ?
Response given: 0.15 nM
